Test: recombinant UMI read abundance after kanamycin selection (control-corrected) (log10(CPM+1)); higher = more efficient recombination; extreme values may be limits of the assay; sequences stand for … in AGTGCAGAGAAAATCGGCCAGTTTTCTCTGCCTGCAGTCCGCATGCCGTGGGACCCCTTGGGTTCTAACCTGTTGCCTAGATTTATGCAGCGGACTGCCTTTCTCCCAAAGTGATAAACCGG…AGGTTGGTTTCACT; site = the 11-nt donor;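 also: IS621 bridge recombinase in Escherichia coli cells against a fixed T5 target plasmid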
Tag: true (1) if measured recombinant UMI read abundance (log10) is not below 0.01, false (0) if it is.

chain: CGAGTGGCATGGACCGGTTTTCCCGGTAATCCGTATTTGGT (site AGAGTGGCTAC)
classification: true (1)
--
chain: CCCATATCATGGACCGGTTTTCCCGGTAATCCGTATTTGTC (site CGCATATCTGA)
classification: false (0)
--
chain: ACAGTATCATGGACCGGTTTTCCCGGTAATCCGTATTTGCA (site CCTGTATCTTG)
classification: true (1)
--
chain: CGTTAGACATGGACCGGTTTTCCCGGTAATCCGTATTTGAT (site CGTTAGACTCT)
classification: false (0)
--
chain: TAGCCTTCATGGACCGGTTTTCCCGGTAATCCGTATTTGGA (site TAGCCTTCTTC)
classification: false (0)
--
chain: GAAGATACATGGACCGGTTTTCCCGGTAATCCGTATTTGTT (site GAAGATTCTAA)
classification: false (0)
--
chain: CGAGTGGCATGGACCGGTTTTCCCGGTAATCCGTATTTGGT (site TGAGTGGCTAC)
classification: true (1)
--
chain: GTTTAAGCATGGACCGGTTTTCCCGGTAATCCGTATTTGAC (site GTTTAAGCTGT)
classification: true (1)
--
chain: GGAGCGGCATGGACCGGTTTTCCCGGTAATCCGTATTTGGT (site GGAGCGGCTAC)
classification: true (1)
--
chain: CTCCCTACATGGACCGGTTTTCCCGGTAATCCGTATTTGAT (site CTCCCTACTGT)
classification: true (1)
--
chain: CGAGTGGCATGGACCGGTTTTCCCGGTAATCCGTATTTGGT (site GGAGTGGCTAC)
classification: true (1)
--
chain: GGTACGTCATGGACCGGTTTTCCCGGTAATCCGTATTTGTC (site GGTACGTCTTA)
classification: true (1)
--
chain: CTGCTACCATGGACCGGTTTTCCCGGTAATCCGTATTTGTT (site CTGCTACCTAT)
classification: true (1)
--
chain: CACTGCTCATGGACCGGTTTTCCCGGTAATCCGTATTTGAA (site CATTGCTCTTT)
classification: true (1)
--
chain: GTTATAGCATGGACCGGTTTTCCCGGTAATCCGTATTTGTC (site GTTATAGCTGA)
classification: true (1)
--
chain: TACCTAGCATGGACCGGTTTTCCCGGTAATCCGTATTTGAA (site TAGCTAGCTTT)
classification: false (0)
--
chain: CGATTCGCATGGACCGGTTTTCCCGGTAATCCGTATTTGCT (site CGATTCGCTAG)
classification: true (1)
--
chain: CTCTGCACATGGACCGGTTTTCCCGGTAATCCGTATTTGCT (site CTCTTCACTAG)
classification: false (0)

* * *

Assay: recombinant UMI read abundance after kanamycin selection (control-corrected) (log10(CPM+1)); higher = more efficient recombination; extreme values may be limits of the assay; sequences stand for … in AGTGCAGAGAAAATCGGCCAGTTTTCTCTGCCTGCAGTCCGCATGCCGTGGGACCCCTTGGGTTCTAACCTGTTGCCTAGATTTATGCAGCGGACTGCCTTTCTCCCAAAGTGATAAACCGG…AGGTTGGTTTCACT; site = the 11-nt donor
Known recombinant UMI read abundance (log10) of a selection of sequences
metric name: recombinant UMI read abundance (log10)

chain: CCTCACACATGGACCGGTTTTCCCGGTAATCCGTATTTGTA (site CCGCACACTTA)
recorded number: 0.0283

chain: TATGTACCATGGACCGGTTTTCCCGGTAATCCGTATTTGGT (site TATGTACCTAC)
recorded number: 0.011

chain: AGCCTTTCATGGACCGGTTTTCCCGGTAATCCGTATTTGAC (site AGCCTTTCTCT)
recorded number: 0.00414

chain: CCCTAGCCATGGACCGGTTTTCCCGGTAATCCGTATTTGCC (site CCATAGCCTGG)
recorded number: 0

chain: GGTCCATCATGGACCGGTTTTCCCGGTAATCCGTATTTGTA (site GGTCCAACTTA)
recorded number: 0.016

chain: CTGGAACCATGGACCGGTTTTCCCGGTAATCCGTATTTGCA (site CTGGAATCTTG)
recorded number: 2.36

chain: CCTCTTGCATGGACCGGTTTTCCCGGTAATCCGTATTTGAG (site CCTCTTGCTCT)
recorded number: 0.0146

chain: ACGTTAGCATGGACCGGTTTTCCCGGTAATCCGTATTTGAT (site ACGTTAGCTAT)
recorded number: 2.62

chain: GAATTCCCATGGACCGGTTTTCCCGGTAATCCGTATTTGCT (site CAATTCCCTAG)
recorded number: 0.484

chain: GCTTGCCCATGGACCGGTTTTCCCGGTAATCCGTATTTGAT (site GCTGGCCCTAT)
recorded number: 0.00346

chain: TACTTGGCATGGACCGGTTTTCCCGGTAATCCGTATTTGGA (site TACTTGGCTTC)
recorded number: 0.216

chain: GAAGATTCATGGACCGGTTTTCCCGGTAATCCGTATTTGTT (site GAAGATGCTAA)
recorded number: 0.0075

chain: TAGTCGACATGGACCGGTTTTCCCGGTAATCCGTATTTGGG (site AAGTCGACTCC)
recorded number: 0.0151

chain: GATTATCCATGGACCGGTTTTCCCGGTAATCCGTATTTGCT (site GATTATGCTAG)
recorded number: 0

chain: TTCATACCATGGACCGGTTTTCCCGGTAATCCGTATTTGCC (site TTCATACCTGG)
recorded number: 0

chain: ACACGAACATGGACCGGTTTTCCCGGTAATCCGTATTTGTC (site ACTCGAACTGA)
recorded number: 0.747

chain: TGGTGTCCATGGACCGGTTTTCCCGGTAATCCGTATTTGAG (site TGGTGTCCTCT)
recorded number: 0.0312

chain: GTTGGAACATGGACCGGTTTTCCCGGTAATCCGTATTTGCC (site GTTGGAACTGG)
recorded number: 2.34

chain: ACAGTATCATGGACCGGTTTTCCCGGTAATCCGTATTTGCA (site TCAGCATCTTG)
recorded number: 2.37

chain: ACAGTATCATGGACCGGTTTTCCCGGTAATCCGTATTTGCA (site ACAGCATCTTG)
recorded number: 1.64

chain: ACCTAGACATGGACCGGTTTTCCCGGTAATCCGTATTTGGG (site ACCGAGACTCC)
recorded number: 0

chain: AATGTAACATGGACCGGTTTTCCCGGTAATCCGTATTTGCT (site AAAGTAACTAG)
recorded number: 1.76

chain: ATCCGACCATGGACCGGTTTTCCCGGTAATCCGTATTTGTC (site ATCCGACCTGA)
recorded number: 0

chain: AATTACGCATGGACCGGTTTTCCCGGTAATCCGTATTTGGA (site AATTATGCTTC)
recorded number: 0.344

chain: CGTTTGTCATGGACCGGTTTTCCCGGTAATCCGTATTTGCT (site CGTTTGTCTAG)
recorded number: 1.92

chain: AAATCGTCATGGACCGGTTTTCCCGGTAATCCGTATTTGTC (site AAATCGTCTGA)
recorded number: 1.91

chain: CTAGTAACATGGACCGGTTTTCCCGGTAATCCGTATTTGAC (site CTAGTACCTGT)
recorded number: 0

chain: AACCCGGCATGGACCGGTTTTCCCGGTAATCCGTATTTGGA (site AACCCGGCTTC)
recorded number: 0.181

chain: CGCCACCCATGGACCGGTTTTCCCGGTAATCCGTATTTGTT (site AGCCACCCTAA)
recorded number: 0.00879

chain: CTATCCTCATGGACCGGTTTTCCCGGTAATCCGTATTTGTT (site CTATCCTCTAA)
recorded number: 2.79

chain: TGCTAGGCATGGACCGGTTTTCCCGGTAATCCGTATTTGGC (site TGCTAGGCTGC)
recorded number: 0

chain: CGAGCGACATGGACCGGTTTTCCCGGTAATCCGTATTTGAA (site CGAGCGACTTT)
recorded number: 1.74

chain: CGGGATTCATGGACCGGTTTTCCCGGTAATCCGTATTTGTT (site CGGGATTCTAA)
recorded number: 2.91

chain: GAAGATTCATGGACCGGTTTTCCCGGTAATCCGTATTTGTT (site GAAGATTCTAA)
recorded number: 2.86

chain: AGTTCCCCATGGACCGGTTTTCCCGGTAATCCGTATTTGTA (site GGTTCCCCTTA)
recorded number: 0.013

chain: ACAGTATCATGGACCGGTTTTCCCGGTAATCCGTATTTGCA (site TTAGTATCTTG)
recorded number: 2.66
